target: TICA0049 Fab; assay: HTRF competition binding selectivity assay, TICA0049 His-Fab; parameters: species or system human; conditions: second series (Table 3), DMSO normalised
Parameter: IC50 in competition binding selectivity studies, TICA0049

1) Nc1ncnc2c1ncn2[C@@H]1O[C@H](COP(=O)(O)OP(=O)(O)OP(=O)(O)O)[C@@H](O)[C@H]1O [ATP, adenosine triphosphate]: trace of inhibition
2) CC(=O)NC[C@H]1CN(c2ccc(N3CCOCC3)c(F)c2)C(=O)O1 [Linezolid]: weak inhibition
3) Nc1ncnc2c1ncn2[C@@H]1O[C@H](COP(=O)(O)OP(=O)(O)O)[C@@H](O)[C@H]1O [ADP, adenosine diphosphate]: trace of inhibition
4) CCCC(=O)Nc1ncnc2c1ncn2[C@@H]1O[C@@H]2COP(=O)(O)O[C@H]2[C@H]1OC(=O)CCC [Bucladesine]: weak inhibition
5) Nc1ncnc2c1ncn2[C@@H]1O[C@H](CO)[C@@H](O)[C@H]1O [Adenosine]: trace of inhibition
